target: Genome polyprotein (dengue virus type 2) (UniProt P29990); conditions: Thailand/16681/1984, Concentration 25.0 uM, Number of replicates 1.0
The whole screen tested about 2,000 compounds, of which about 110 (5.5%) showed an effect of 50% or more. The sample as a whole holds a higher share of strong results than the screen did.
Reported Property: inhibition (%)
Give a bare numeral; the unit % is implied.

For reference, reported inhibition for `CC(C)N(C[C@H](O)COc1ccc(CC(N)=O)cc1)C(=O)C1CCN(c2ccc(C=O)cc2)CC1` stands at 13.4

Memo: `C=CCN(Cc1cccc(OC)c1)C(=O)C1CCN(c2ccc(C=O)cc2)CC1` , reported inhibition: 13.3

inhibition recorded for this molecule, `C[C@H](NC(=O)C1CCN(c2ccc(C=O)cc2)CC1)c1ccc(S(C)(=O)=O)cc1` , is 12.5

For `COc1ccc(C[C@H]2c3cc(OC)c(OC)cc3CCN2C(=O)C2CCN(c3ccc(C=O)cc3)CC2)cc1OC` the molecule record lists inhibition as 15.8

The value of inhibition measured for the molecule `O=Cc1ccc(N2CCC(C(=O)Nc3nnc(C(F)(F)F)s3)CC2)cc1` turned out to be 12.7

Recorded inhibition (molecule `O=Cc1ccc(N2CCC(C(=O)N[C@H]3CCOc4ccc(F)cc43)CC2)cc1` ): 15.7

// field: inhibition; key: `O=Cc1ccc(N2CCC(C(=O)N3CCN(C(c4ccc(F)cc4)c4ccc(F)cc4)CC3)CC2)cc1` ; value = 1.35

Reported inhibition of `O=Cc1ccc(N2CCC(C(=O)N3CCC(O)(c4ccc(Br)cc4)CC3)CC2)cc1` : 14.6

Sample `O=Cc1ccc(N2CCC(C(=O)N3CC4C[C@H]5CC3C[C@H](C4)C5)CC2)cc1` ; inhibition observed: 14.5
